Listed compounds paired with reported composite z-score
- experimental_target: Dickkopf-related protein 1 (Homo sapiens) (UniProt O94907)
- Sequence (O94907 whole entry, looked up): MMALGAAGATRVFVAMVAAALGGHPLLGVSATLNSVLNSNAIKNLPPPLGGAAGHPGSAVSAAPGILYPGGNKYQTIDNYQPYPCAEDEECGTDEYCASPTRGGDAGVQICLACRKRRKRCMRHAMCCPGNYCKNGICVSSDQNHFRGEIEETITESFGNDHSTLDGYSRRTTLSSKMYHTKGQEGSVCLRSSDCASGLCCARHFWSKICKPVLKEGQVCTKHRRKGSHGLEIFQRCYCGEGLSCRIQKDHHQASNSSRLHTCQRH
- method: DKK1 binders on small-molecule microarrays, primary screen, biochemical, small-molecule microarray, 635 nm fluorescence scan (AID 1106);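 note: score merges emission near 667 nm with signal to noise over three replicate slides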
- condition: DKK1 binding, higher = more signal

# compound, composite z-score
records = [
    ("COc1cc2c(cc1OC)CN(C(=O)[C@@H]1[C@H]3C(=O)O[C@H](c4ccccc4)[C@H](c4ccccc4)N3[C@H](c3ccccc3OCCO)[C@@]13C(=O)Nc1ccc(C#CCNC(N)=O)cc13)CC2", 0.208),
    ("CC(C)N1C(=O)[C@@]2(c3ccc([N+](=O)[O-])cc3)CC(=O)N(CC34CC5CC(CC(C5)C3)C4)[C@@H]2c2ccc(CO)cc21", -0.734),
    ("Cc1ccc(S[C@]2(C(=O)NC3CC3)CC(=O)N(Cc3ccccc3)[C@@H]2c2ccc(CO)cc2)cc1", 0.539),
    ("CC(C)N1C(=O)C[C@@](C(=O)NCc2ccccc2)(c2ccc([N+](=O)[O-])cc2)[C@H]1c1ccc(CO)cc1", -0.0781),
    ("CC(C)C[C@@H]1NC(=O)[C@@H]2C[C@H](C(=O)NCCCCCC[N+](C)(C)C)[C@H](c3ccc(O)cc3)N2C1=O", 0.977),
    ("COCCOC(=O)N1C(=O)[C@@]2(c3cc(C#CCNC(N)=O)ccc31)[C@H](c1ccc(OCCO)cc1)N1[C@H](c3ccccc3)[C@H](c3ccccc3)OC(=O)[C@H]1[C@@H]2C(=O)N1CCc2cc(OC)c(OC)cc2C1", 0.455),
    ("CCN(CC)c1ccc(N2CC=CC34O[C@@H]5/C=C\\CCCOC(=O)C5[C@H]3C(=O)N(C(CO)C(C)C)[C@@H]4C2=O)cc1 (some centres not stated)", -0.681),
]

====

- experimental_target: Carbonic anhydrase 2 (Homo sapiens)
- method: CAII small-molecule binders, profiling panel, biochemical, small-molecule microarray, Alexa647-labelled CAII (AID 1122)
- condition: CAII-A647 binding fluorescence, higher = more signal
property: composite z-score

# molecule, property, observed_value
measured = [
    ("C=CC[C@@]1(C(=O)N2CCOCC2)N=C(c2ccc(OCCCO)cc2)O[C@@H]1c1ccccc1N=[N+]=[N-]", "composite z-score", 0.419),
    ("C=C(CCCC)C(=O)CC[C@H](OC(=O)c1cccnc1)c1cccc(OCCO)c1", "composite z-score", 0.771),
    ("CN1C(=O)C2C(C1=O)C1C=C(CCCO)C2C(c2cccs2)N1C (centres undefined)", "composite z-score", 0.779),
    ("N[C@@H](Cc1ccccc1)Cn1cc(-c2ccccc2)nn1", "composite z-score", -0.062),
    ("Cc1ccc([C@H]2C(C(=O)O)=C[C@@H](C)N2S(=O)(=O)c2ccc(C)cc2)cc1", "composite z-score", 0.866),
    ("CCOC(=O)C1=CCC(c2ccc([N+](=O)[O-])cc2)N(S(=O)(=O)c2ccc(C)cc2)C1 (centres undefined)", "composite z-score", 0.408),
    ("CC(C)(C)OC(=O)CC[C@@]1(C(=O)O)N=C(c2ccc(OCCCO)cc2)O[C@@H]1c1ccccc1N=[N+]=[N-]", "composite z-score", 0.72),
    ("CCOC(=O)C[C@H]1[C@H](OC(=O)c2ccc(C(=O)c3ccccc3)cc2)[C@@H](NC(=O)C2CCCCC2)c2cc(OCCCO)ccc2N1C(=O)c1ccccc1", "composite z-score", 0.159),
    ("O=C(OCCF)C1=CCC(c2cccc(Cl)c2)O1 (centres undefined)", "composite z-score", 0.593),
]

====

- method: S. cerevisiae growth modulation with rapamycin, primary screen, strain BY4716, OD600, 96 h (AID 1091); note: test concentration not given here
- condition: higher = more signal, called active from +8 up or from −8 down

# molecule, z-score
data = [
    ("Cc1ccc(S[C@]2(C(=O)NCc3ccccc3)CC(=O)N(Cc3ccccc3Cl)[C@@H]2c2ccc(CO)cc2I)cc1", 0.103),
    ("C=C(COC)/C(=C/C[C@H](OC(=O)c1ccncc1)c1cccc(OCCO)c1)c1cc(C(=O)OC)ccc1OC", -0.429),
    ("CC1CC/C=C\\[C@H]2OC34C=CCN(Cc5ccccc5)C(=O)[C@H]3N(CCCCCO)C(=O)[C@@H]4C2C(=O)O1 (stereo not given in full)", -0.506),
    ("COCCOC(=O)N1C(=O)[C@@]2(c3cc(C#CC4(O)CCCCCC4)ccc31)[C@H](C(=O)N1CCCCCCC1)[C@H]1C(=O)O[C@H](c3ccccc3)[C@H](c3ccccc3)N1[C@@H]2c1ccccc1OCCO", 3.73),
    ("COc1ccc([Si](C)(C)[C@H]2[C@H](CCn3cc([C@H](O)c4ccccc4)nn3)O[C@@]3(C(=O)N(Cc4cccc(N5CCC5=O)c4)c4ccccc43)[C@@H]2C)cc1", 1.82),
    ("C=C[C@H](C)[C@@H](O)c1ccc(O)c2ccccc12", 4.25),
    ("CC(C)OC(=O)CC(=O)CC(O)c1ccc(C#N)cc1 (stereo not given)", -0.602),
    ("CC(C)N1C(=O)C[C@@](C(=O)NCc2ccccc2)(c2ccc([N+](=O)[O-])cc2)[C@H]1c1ccc(CO)cc1", -0.881),
    ("C=CC[C@]1(C(=O)N2CCOCC2)N=C(c2ccc(OCCCO)cc2)O[C@H]1c1ccccc1", -1.67),
    ("COc1ccc([Si](C)(C)[C@H]2[C@H](CC(=O)N(CCO)Cc3ccccc3)O[C@@]3(C(=O)N(Cc4cccc(N5CCC5=O)c4)c4ccccc43)[C@@H]2C)cc1", 1.16),
    ("CCCNC(=O)[C@@]1(c2ccc([N+](=O)[O-])cc2)CC(=O)N(CC23CC4CC(CC(C4)C2)C3)[C@@H]1c1ccc(CO)cc1", 4.67),
    ("COc1ccc(NN2C(C(O)c3ccc(OC)c(OCc4ccccc4)c3)C=CC3C(=O)N(C4CCCCC4)C(=O)C32)cc1 (stereo not given)", -0.724),
    ("COC(=O)c1ccc(OC)c(/C=C\\CC(OC(C)=O)c2ccccc2)c1 (stereo not given)", -0.0987),
    ("NCCCCCNC(=O)[C@H]1C[C@H]2C(=O)NCC(=O)N2[C@H]1c1cccc(OCCO)c1", -0.189),
    ("NC(=O)NCC#Cc1ccc2c(c1)[C@]1(C(=O)N2)[C@H](C(=O)N2CCCCCCC2)[C@H]2C(=O)O[C@H](c3ccccc3)[C@H](c3ccccc3)N2[C@@H]1c1ccc(OCCO)cc1", 4.58),
]

====

- Tested on: PRMT1 (protein arginine N-methyltransferase 1)
- method: PRMT1 binders on small-molecule microarrays, primary screen, biochemical, small-molecule microarray, 635 nm fluorescence (AID 1088);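 note: binding of Prmt1 protein to compounds spotted on small-molecule microarray slides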
- condition: small-molecule microarray binding, higher = more signal
Output satisfied for composite z-score not less than 0.5; output not satisfied otherwise.

# compound, qualitative_label
rows = [
    ("O=C/C=C/c1ccc2c(c1)OCO2", "not satisfied"),
    ("CCOC(=O)C[C@H]1[C@H](OC(=O)c2ccccc2-c2ccccc2)[C@@H](NC(=O)c2ccc3ccccc3c2)c2cc(OCCCO)ccc2N1C(=O)c1ccc2ccccc2n1", "not satisfied"),
    ("COC(=O)C1=CC(CCCO)=CC(C2CC2)N(Cc2sc3ccccc3c2Cl)C=C1C(=O)OC (stereo not given)", "satisfied"),
    ("CCCCC(CC)C(O)C1C=CC2C(=O)N(c3ccccc3)C(=O)C2N1Nc1ccccc1 (stereo not given)", "satisfied"),
    ("CCOC(=O)C[C@H]1[C@H](OC(=O)c2ccc(-c3ccccc3)cc2)[C@@H](NC(=O)Cc2ccc(OC)cc2)c2cc(OCCCO)ccc2N1C(=O)c1ccc2ccccc2n1", "satisfied"),
    ("COc1cc(CO)ccc1OC(C)=O", "satisfied"),
    ("[N-]=[N+]=NCc1ccccc1[C@@H]1OC(c2ccc(OCCCO)cc2)=N[C@]1(Cc1ccccc1)C(=O)N1CCCCC1", "satisfied"),
    ("CCOC(=O)C1=CC[C@@H](c2ccccc2Cl)N(S(=O)(=O)c2ccc(C)cc2)C1", "satisfied"),
    ("C=C[C@H](COC(C)=O)N(Cc1ccc(OC(C)=O)c(OC)c1)S(=O)(=O)c1ccc(Br)cc1", "not satisfied"),
    ("O=C1OCCC=C[C@H]2OC34C=CCN(Cc5ccccc5)C(=O)[C@H]3N(CCCCCO)C(=O)[C@@H]4C12 (stereo not given in full)", "satisfied"),
    ("NCCCCCNC(=O)[C@H]1C[C@H]2C(=O)NCC(=O)N2[C@H]1c1cccc(OCCO)c1", "satisfied"),
    ("C=C(CCCC)/C(=C/C[C@H](OC(C)=O)c1ccc(CO)o1)c1cnc2ccccc2c1", "satisfied"),
    ("C=C[C@@H](COC(C)=O)N(Cc1ccccc1[N+](=O)[O-])S(=O)(=O)c1ccc(Br)cc1", "satisfied"),
    ("CC(C)c1ccc(NN2C(C(O)c3ccc(N(C)C)cc3)C=CC3C(=O)N(c4ccccc4)C(=O)C32)cc1 (stereo not given)", "satisfied"),
    ("O=C1[C@]2(CO)C=C(Br)[C@@H](C[C@@H]2c2ccccc2)[C@@]12CO2", "not satisfied"),
    ("COCCOC(=O)N1C(=O)[C@@]2(c3cc(C#CCNC(N)=O)ccc31)[C@H](c1ccc(O)cc1)N1[C@H](c3ccccc3)[C@H](c3ccccc3)OC(=O)[C@H]1[C@@H]2C(=O)Nc1nc2ccccc2s1", "satisfied"),
    ("C=CCC(OC(C)=O)[C@@H]1[C@@H](N(Cc2cccc3ccccc23)C(=O)c2cccc3ccccc23)c2cc(OCCCO)ccc2N1C(=O)c1ccc2ccccc2n1 (stereo not given in full)", "not satisfied"),
    ("CCOC(=O)C[C@H]1[C@H](OC(=O)c2ccc(-c3ccccc3)cc2)[C@@H](NC(=O)c2ccc3ccccc3c2)c2cc(OCCCO)ccc2N1C(=O)Cc1ccc(OC)cc1", "not satisfied"),
    ("COc1ccc([Si](C)(C)[C@@H]2[C@@H](CC(=O)N3CCC[C@H]3CO)O[C@]3(C(=O)N(C)c4c(Br)cc(C)cc43)[C@H]2C)cc1", "satisfied"),
    ("CCOC(=O)[C@H]1C/C=C/C[C@H](C(=O)OCC)C(=O)O[C@H]2[C@@H](OC)O[C@H](CO)[C@@H](OC(=O)Nc3ccc4c(c3)OCO4)[C@@H]2OC1=O", "satisfied"),
    ("[N-]=[N+]=NCc1ccccc1C[C@@]1(C(=O)N2CCOCC2)N=C(c2ccc(OCCCO)cc2)O[C@@H]1c1ccccc1CN=[N+]=[N-]", "satisfied"),
    ("COc1cc2c(cc1O)C(C)N(Cc1cccc(OC(F)(F)F)c1)CC2 (stereo not given)", "satisfied"),
    ("CCCCCN1CC=CC23O[C@@H]4/C=C\\CCCOC(=O)C4[C@H]2C(=O)N(CCCCCCO)[C@@H]3C1=O (stereo not given in full)", "not satisfied"),
    ("C=CCNC(=O)[C@@H]1[C@H]2C(=O)O[C@H](c3ccccc3)[C@H](c3ccccc3)N2[C@H](c2ccccc2OCCO)[C@@]12C(=O)Nc1ccc(C#CC3=CCCCC3)cc12", "satisfied"),
    ("CCOC(=O)C1=C[C@@H](C(C)C)N(S(=O)(=O)c2ccc(C)cc2)[C@H]1c1ccc(C(C)C)cc1", "satisfied"),
    ("CC(C)N1C(=O)C[C@@](C(=O)NCc2ccccc2)(c2ccc([N+](=O)[O-])cc2)[C@H]1c1ccc(CO)cc1", "satisfied"),
    ("CCCCC=C[C@@H](NC(=O)c1cccs1)c1ccccc1", "not satisfied"),
    ("COC(=O)c1ccc(C(O)C2C=CC3C(=O)N(c4ccccc4)C(=O)C3N2Nc2ccc(C#N)cc2)o1 (stereo not given)", "not satisfied"),
    ("COCCOC(=O)N1C(=O)[C@@]2(c3cc(C#CCNC(N)=O)ccc31)[C@H](c1ccccc1OCCO)N1[C@H](c3ccccc3)[C@H](c3ccccc3)OC(=O)[C@H]1[C@@H]2C(N)=O", "satisfied"),
    ("Cc1cc(C)c(C(O)C2C=CC3C(=O)N(c4ccccc4)C(=O)C3N2Nc2ccc(C#N)cc2)c(C)c1 (stereo not given)", "satisfied"),
]
